- System: S. epidermidis 510
- assay_procedure: MIC, hospital MRSE strain
- Format: cell-based, Staphylococcus epidermidis
- test_parameters: hospital MRSE S. epidermidis 510
measured_endpoint: MIC

- smiles_record: "O=[N+]([O-])c1cc([N+]2=C(Nc3ccccc3F)[S][Cu-2]23[S]C(Nc2ccccc2F)=[N+]3c2ccc(Cl)c([N+](=O)[O-])c2)ccc1Cl"
  measured_endpoint: "MIC"
  observed: "8 µg/mL"
- smiles_record: "O=[N+]([O-])c1cc(NC2=[N+](c3ccc(Cl)c([N+](=O)[O-])c3)[Cu-2]3([S]2)[S]C(Nc2ccc(Cl)c([N+](=O)[O-])c2)=[N+]3c2ccc(Cl)c([N+](=O)[O-])c2)ccc1Cl"
  measured_endpoint: "MIC"
  observed: "64 µg/mL"

Now turn to the next compound.
Task: Tell me its MIC given O=[N+]([O-])c1cc([N+]2=C(Nc3cccc(Br)c3)[S][Cu-2]23[S]C(Nc2cccc(Br)c2)=[N+]3c2ccc(Cl)c([N+](=O)[O-])c2)ccc1Cl as the entry.
Output: 8 µg/mL

----------
- System: Bacillus subtilis M45 (rec−)
- assay_procedure: Bacillus subtilis rec-assay, M45
- Assay type: cell-based
- test_parameters: B. subtilis M45; 256 µg per disc (NOQ 2 µg per disc)
Attribute: inhibition zone diameter
Unit mm implied. Number only.

Worked examples, 2 compounds total:
- smiles_record: "O=[N+]([O-])c1cc(NC2=[N+](c3ccc(Cl)c([N+](=O)[O-])c3)[Cu-2]3([S]2)[S]C(Nc2ccc(Cl)c([N+](=O)[O-])c2)=[N+]3c2ccc(Cl)c([N+](=O)[O-])c2)ccc1Cl"
  measured_endpoint: "inhibition zone diameter"
  observed: 15
- smiles_record: "O=[N+]([O-])c1cc([N+]2=C(Nc3ccc(Br)cc3)[S][Cu-2]23[S]C(Nc2ccc(Br)cc2)=[N+]3c2ccc(Cl)c([N+](=O)[O-])c2)ccc1Cl"
  measured_endpoint: "inhibition zone diameter"
  observed: 15

Task: Tell me its inhibition zone diameter given O=[N+]([O-])c1cc([N+]2=C(Nc3ccc(I)cc3)[S][Cu-2]23[S]C(Nc2ccc(I)cc2)=[N+]3c2ccc(Cl)c([N+](=O)[O-])c2)ccc1Cl as the entry.
Output: 14

Task: Tell me its inhibition zone diameter given O=[N+]([O-])c1cc([N+]2=C(Nc3ccc(F)c(Cl)c3)[S][Cu-2]23[S]C(Nc2ccc(F)c(Cl)c2)=[N+]3c2ccc(Cl)c([N+](=O)[O-])c2)ccc1Cl as the entry.
Output: 18

Task: Tell me its inhibition zone diameter given O=[N+]([O-])c1cc([N+]2=C(Nc3ccccc3F)[S][Cu-2]23[S]C(Nc2ccccc2F)=[N+]3c2ccc(Cl)c([N+](=O)[O-])c2)ccc1Cl as the entry.
Output: 18

Task: Tell me its inhibition zone diameter given O=[N+]([O-])c1cc([N+]2=C(Nc3cccc(Br)c3)[S][Cu-2]23[S]C(Nc2cccc(Br)c2)=[N+]3c2ccc(Cl)c([N+](=O)[O-])c2)ccc1Cl as the entry.
Output: 19

----------
- Tested on: Bacillus subtilis H17 (rec+)
- assay_procedure: Bacillus subtilis rec-assay, H17
- Type: cell-based
- test_parameters: B. subtilis H17; 256 µg per disc (NOQ 2 µg per disc)
measured_endpoint: inhibition zone diameter (mm)
Unit mm implied. Number only.

Task: Tell me its inhibition zone diameter given O=[N+]([O-])c1cc([N+]2=C(Nc3ccc(Br)cc3)[S][Cu-2]23[S]C(Nc2ccc(Br)cc2)=[N+]3c2ccc(Cl)c([N+](=O)[O-])c2)ccc1Cl [Compound 3] as the entry.
Output: 15

Task: Tell me its inhibition zone diameter given O=[N+]([O-])c1cc([N+]2=C(Nc3ccccc3F)[S][Cu-2]23[S]C(Nc2ccccc2F)=[N+]3c2ccc(Cl)c([N+](=O)[O-])c2)ccc1Cl [Compound 7] as the entry.
Output: 15

Task: Tell me its inhibition zone diameter given O=[N+]([O-])c1cc([N+]2=C(Nc3cccc(Br)c3)[S][Cu-2]23[S]C(Nc2cccc(Br)c2)=[N+]3c2ccc(Cl)c([N+](=O)[O-])c2)ccc1Cl [Compound 2] as the entry.
Output: 17

Values from paper PMC8584173
